Catalogue of compounds with associated pIC50
Molecular target: Ba/F3 cells with EGFR exon 20 ASV Ins V769_D770 (Homo sapiens, UniProt P00533, INS769ASV)
Sequence (P00533 with tags, fused parts or gaps INS769ASV): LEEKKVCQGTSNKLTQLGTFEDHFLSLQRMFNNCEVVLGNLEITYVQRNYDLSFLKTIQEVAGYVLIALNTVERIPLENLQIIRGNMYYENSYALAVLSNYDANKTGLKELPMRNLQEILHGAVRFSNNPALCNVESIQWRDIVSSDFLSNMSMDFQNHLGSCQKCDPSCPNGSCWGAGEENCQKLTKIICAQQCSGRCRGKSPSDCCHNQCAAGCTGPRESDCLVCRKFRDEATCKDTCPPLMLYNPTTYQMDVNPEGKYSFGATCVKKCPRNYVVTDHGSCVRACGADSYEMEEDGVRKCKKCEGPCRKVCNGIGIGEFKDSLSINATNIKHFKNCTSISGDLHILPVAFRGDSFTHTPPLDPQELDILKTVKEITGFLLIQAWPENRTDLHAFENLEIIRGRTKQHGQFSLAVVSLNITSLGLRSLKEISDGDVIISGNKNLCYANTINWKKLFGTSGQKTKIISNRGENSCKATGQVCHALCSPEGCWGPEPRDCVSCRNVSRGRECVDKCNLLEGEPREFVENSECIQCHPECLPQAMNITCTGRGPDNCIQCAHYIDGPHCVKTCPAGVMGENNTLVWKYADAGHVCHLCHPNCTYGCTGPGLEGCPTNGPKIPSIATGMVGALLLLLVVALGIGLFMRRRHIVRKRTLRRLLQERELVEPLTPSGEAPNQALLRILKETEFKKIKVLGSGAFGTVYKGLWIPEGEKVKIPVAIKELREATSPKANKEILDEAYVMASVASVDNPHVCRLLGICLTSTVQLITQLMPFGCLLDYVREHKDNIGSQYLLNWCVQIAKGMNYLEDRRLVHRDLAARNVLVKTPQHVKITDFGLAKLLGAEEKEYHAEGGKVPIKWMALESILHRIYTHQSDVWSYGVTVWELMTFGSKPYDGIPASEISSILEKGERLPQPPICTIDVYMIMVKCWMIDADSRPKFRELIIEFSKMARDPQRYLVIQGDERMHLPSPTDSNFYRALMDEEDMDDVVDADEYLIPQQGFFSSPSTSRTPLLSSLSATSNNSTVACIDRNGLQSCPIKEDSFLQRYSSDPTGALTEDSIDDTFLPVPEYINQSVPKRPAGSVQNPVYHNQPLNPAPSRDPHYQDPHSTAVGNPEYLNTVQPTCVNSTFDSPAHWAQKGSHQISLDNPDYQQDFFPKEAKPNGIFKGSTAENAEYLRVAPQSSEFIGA
Assay: EGFR activity: Ba/F3 cell viability (CellTiter-Glo, 72 h), EGFR exon 20 ASV insertion
Details: EGFR exon 20 ASV Ins V769_D770, cell viability, read-out: BaF3 ASV IC50
pIC50: −log10 of the molar value.
observationType: pIC50

# compound, testValue
records = [
    ("C=CC(=O)NC1(C#Cc2cnccc2-c2[nH]c3c(c2Nc2cccc(F)c2OC)C(=O)NCC3)CC(F)(F)C1 [compound 401]", "> 7.00"),
    ("COc1c(Cl)cccc1Nc1c(-c2ccncc2OC[C@H]2CCCN2S(C)(=O)=O)[nH]c2c1C(=O)NCC2 [Compound 142b]", "> 7.00"),
    ("COc1c(F)cccc1Nc1c(-c2ccncc2OCCc2ccco2)[nH]c2c1C(=O)NCC2 [Compound 483]", "6.00 to 7.00"),
    ("C=CC(=O)N[C@@H](C#Cc1cnccc1-c1[nH]c2c(c1Nc1cccc(Cl)c1OC)C(=O)NCC2)CC [compound 582]", "> 7.00"),
]

----------
Molecular target: Ba/F3 cells with EGFR WT (Homo sapiens, UniProt P00533)
Sequence (P00533 25-1210): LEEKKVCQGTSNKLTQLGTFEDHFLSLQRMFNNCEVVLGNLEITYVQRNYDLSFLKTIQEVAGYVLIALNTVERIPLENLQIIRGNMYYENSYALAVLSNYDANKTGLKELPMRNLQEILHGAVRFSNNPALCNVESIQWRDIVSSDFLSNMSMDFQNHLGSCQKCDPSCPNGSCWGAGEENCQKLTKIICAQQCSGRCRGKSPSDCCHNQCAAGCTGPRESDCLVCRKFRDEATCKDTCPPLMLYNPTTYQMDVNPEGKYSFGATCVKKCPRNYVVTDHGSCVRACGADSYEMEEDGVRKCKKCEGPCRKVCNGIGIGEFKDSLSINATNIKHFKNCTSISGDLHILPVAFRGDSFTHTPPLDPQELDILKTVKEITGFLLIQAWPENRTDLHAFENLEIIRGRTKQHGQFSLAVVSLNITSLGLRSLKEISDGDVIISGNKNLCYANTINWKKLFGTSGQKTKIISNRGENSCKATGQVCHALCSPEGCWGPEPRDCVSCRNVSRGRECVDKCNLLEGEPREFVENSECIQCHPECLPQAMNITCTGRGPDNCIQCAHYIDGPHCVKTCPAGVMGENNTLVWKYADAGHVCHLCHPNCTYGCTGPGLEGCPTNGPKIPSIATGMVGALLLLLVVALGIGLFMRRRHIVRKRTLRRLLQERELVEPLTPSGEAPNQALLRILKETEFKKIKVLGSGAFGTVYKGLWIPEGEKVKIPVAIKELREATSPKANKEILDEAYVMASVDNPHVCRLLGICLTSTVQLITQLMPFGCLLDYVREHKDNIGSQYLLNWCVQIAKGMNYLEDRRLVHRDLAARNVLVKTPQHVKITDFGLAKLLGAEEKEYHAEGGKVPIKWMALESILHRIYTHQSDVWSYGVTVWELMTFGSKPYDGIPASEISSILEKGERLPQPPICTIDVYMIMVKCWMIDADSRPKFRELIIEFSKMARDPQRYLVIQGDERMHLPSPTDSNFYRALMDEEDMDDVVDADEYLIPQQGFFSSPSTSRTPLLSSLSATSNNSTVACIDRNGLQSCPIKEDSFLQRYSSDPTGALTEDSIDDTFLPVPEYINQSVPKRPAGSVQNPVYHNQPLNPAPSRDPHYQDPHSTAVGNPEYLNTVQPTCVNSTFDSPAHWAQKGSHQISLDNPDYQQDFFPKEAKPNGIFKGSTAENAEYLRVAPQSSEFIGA
Test: EGFR activity: Ba/F3 cell viability (CellTiter-Glo, 72 h), EGFR WT
Conditions: read-out: BaF3 WT IC50

# molecule, IC50
data = [
    ("C=CC(=O)N1CCN(C)C[C@H]1COc1cnccc1-c1[nH]c2c(c1Nc1cccc(F)c1OC)C(=O)NCC2", "0.1 to 1 µM"),
    ("C=CC(=O)N1CCC[C@]1(C)C#Cc1cnccc1-c1[nH]c2c(c1Nc1cc(F)cc(Cl)c1OC)C(=O)NCC2", "0.1 to 1 µM"),
    ("C=CC(=O)N1CCC[C@H]1C#Cc1cnccc1-c1[nH]c2c(c1Nc1cccc(F)c1OC)C(=O)NCC2 [Compound 147a]", "< 0.1 µM"),
    ("Cc1c(F)cccc1Nc1c(-c2ccncc2C#Cc2cnn(C)c2)[nH]c2c1C(=O)NCC2", "> 1 µM"),
    ("CC#CC(=O)N1CC[C@@H]1COc1cnccc1-c1[nH]c2c(c1Nc1cccc(F)c1F)C(=O)NCC2", "0.1 to 1 µM"),
    ("C=CC(=O)N1CCN(C)C[C@@H]1COc1cnccc1-c1[nH]c2c(c1Nc1cccc(Cl)c1OC)C(=O)NCC2", "> 1 µM"),
    ("COc1c(F)cccc1Nc1c(-c2ccncc2C#C[C@H]2CCCN2C(=O)/C=C/CN(C)C)[nH]c2c1C(=O)NCC2", "> 1 µM"),
]

----------
Biological target: Ba/F3 cells with EGFR exon 20 ASV Ins V769_D770 (Homo sapiens, UniProt P00533, INS769ASV)
Assay: EGFR activity: Ba/F3 cell viability (CellTiter-Glo, 72 h), EGFR exon 20 ASV insertion
Conditions: EGFR exon 20 ASV Ins V769_D770, cell viability, read-out: BaF3 ASV IC50

# molecule, testedTarget, IC50
data = [
    ("C=CC(=O)NC1(C#Cc2cnccc2-c2[nH]c3c(c2Nc2cc(F)cc(Cl)c2OC)C(=O)NCC3)COC1", "Ba/F3 cells with EGFR exon 20 ASV Ins V769_D770 (Homo sapiens, UniProt P00533, INS769ASV)", "< 100 nM"),
    ("COc1c(F)cccc1Nc1c(-c2ccncc2OC[C@@]2(C)CCN2C(=O)/C=C/CN(C)C)[nH]c2c1C(=O)NCC2", "Ba/F3 cells with EGFR exon 20 ASV Ins V769_D770 (Homo sapiens, UniProt P00533, INS769ASV)", "< 100 nM"),
    ("CC#CC(=O)N1CC[C@H]1C#Cc1cnccc1-c1[nH]c2c(c1Nc1cccc(Cl)c1OC)C(=O)NCC2", "Ba/F3 cells with EGFR exon 20 ASV Ins V769_D770 (Homo sapiens, UniProt P00533, INS769ASV)", "< 100 nM"),
    ("C=CC(=O)NC(C)(C)C#Cc1cnccc1-c1[nH]c2c(c1Nc1cc(F)cc(Cl)c1OC)C(=O)NCC2", "Ba/F3 cells with EGFR exon 20 ASV Ins V769_D770 (Homo sapiens, UniProt P00533, INS769ASV)", "< 100 nM"),
    ("COc1c(F)cccc1Nc1c(-c2ccncc2C#C[C@]2(NC(=O)/C=C/CN(C)C)CCOC2)[nH]c2c1C(=O)NCC2", "Ba/F3 cells with EGFR exon 20 ASV Ins V769_D770 (Homo sapiens, UniProt P00533, INS769ASV)", "100 to 1000 nM"),
    ("C=CC(=O)N1CCN(C)C[C@H]1COc1cnccc1-c1[nH]c2c(c1Nc1cccc(Cl)c1OC)C(=O)NCC2", "Ba/F3 cells with EGFR exon 20 ASV Ins V769_D770 (Homo sapiens, UniProt P00533, INS769ASV)", "< 100 nM"),
    ("COc1c(Cl)cccc1Nc1c(-c2ccncc2C#C[C@@]2(C)CCCN2C(=O)/C=C/CN2CC(F)(F)C2)[nH]c2c1C(=O)NCC2", "Ba/F3 cells with EGFR exon 20 ASV Ins V769_D770 (Homo sapiens, UniProt P00533, INS769ASV)", "100 to 1000 nM"),
    ("Cc1c(F)cccc1Nc1c(-c2ccncc2C#CC2COC2)[nH]c2c1C(=O)NCC2", "Ba/F3 cells with EGFR exon 20 ASV Ins V769_D770 (Homo sapiens, UniProt P00533, INS769ASV)", "100 to 1000 nM"),
    ("COc1c(Cl)cccc1Nc1c(-c2ccncc2C#CC(C)(C)NC(=O)/C=C/CN(C)C)[nH]c2c1C(=O)NCC2", "Ba/F3 cells with EGFR exon 20 ASV Ins V769_D770 (Homo sapiens, UniProt P00533, INS769ASV)", "< 100 nM"),
    ("C=CC(=O)N1[C@H]2CC[C@H](C2)[C@@H]1C#Cc1cnccc1-c1[nH]c2c(c1Nc1cccc(Cl)c1OC)C(=O)NCC2", "Ba/F3 cells with EGFR exon 20 ASV Ins V769_D770 (Homo sapiens, UniProt P00533, INS769ASV)", "< 100 nM"),
    ("C=CC(=O)N1CCOC[C@@]1(C)C#Cc1cnccc1-c1[nH]c2c(c1Nc1cccc(F)c1OC)C(=O)NCC2", "Ba/F3 cells with EGFR exon 20 ASV Ins V769_D770 (Homo sapiens, UniProt P00533, INS769ASV)", "< 100 nM"),
    ("C=C(CN(C)C)C(=O)NC(C)(C)C#Cc1cnccc1-c1[nH]c2c(c1Nc1cccc(F)c1OC)C(=O)NCC2", "Ba/F3 cells with EGFR exon 20 ASV Ins V769_D770 (Homo sapiens, UniProt P00533, INS769ASV)", "< 100 nM"),
    ("COc1c(F)cccc1Nc1c(-c2ccncc2OCc2cnc3n2CCC3)[nH]c2c1C(=O)NCC2", "Ba/F3 cells with EGFR exon 20 ASV Ins V769_D770 (Homo sapiens, UniProt P00533, INS769ASV)", "100 to 1000 nM"),
    ("COc1c(F)cccc1Nc1c(-c2ccncc2C#CC2(C)CCN2C(=O)/C=C/CN(C)C)[nH]c2c1C(=O)NCC2 (centres unmarked)", "Ba/F3 cells with EGFR exon 20 ASV Ins V769_D770 (Homo sapiens, UniProt P00533, INS769ASV)", "> 1000 nM"),
]
